Every entry's value here was drawn from PubChem BioAssay (NCI).

Consider the following compounds and their measured GI50 readings.
# System: OVCAR-4 ovarian
# experiment summary: NCI tumour cell line growth inhibition, 48 h

smiles representation: O=C(/C=C/c1cccc(B(O)O)c1)c1cccc(B(O)O)c1
measured result: 3.27 µM

Quick note, GI50 for `CCOc1cc(/C=N\NC(=O)N/N=C/c2ccc(O)c(OCC)c2)ccc1O` landed at 54.3 µM

GI50 reading for `O=[N+]([O-])c1ccc(-c2ccccc2)c([As](=O)(O)O)c1` : 14.6 µM

GI50 reported for this compound `COc1cnc2c(c1)C(=O)c1c-2n(CCCN2CCN(CCO)CC2)c(=O)c2cc([N+](=O)[O-])ccc12` : 1.79 µM

---

# Tested on: 786-0 renal
# experiment summary: NCI tumour cell line growth inhibition, 48 h
assay endpoint: TGI

The compound listed as COC(=O)/C(=N\O)C(C(=O)C=C(C)C)C(=O)C(=O)Nc1ccccc1C (stereo unspecified) shows TGI equal to > 100 µM

Looking up Cc1cc(-c2nc3cc(F)ccc3s2)ccc1NC(=O)C(C)N (stereo unspecified) , I found its TGI recorded as 7.2 µM

Reported TGI of CC(OCc1ccccc1)C(NC(=O)C1CSSCC(NC(=O)C(Cc2ccccc2)NC(=O)OCc2ccccc2)C(=O)NC(Cc2ccccc2)C(=O)NC(Cc2cn(C=O)c3ccccc23)C(=O)NC(CCCCNC(=O)OCc2ccccc2)C(=O)NC(C(C)OCc2ccccc2)C(=O)N1)C(N)=O (stereo unspecified) : > 86.9 µM

Please fill in: TGI reported for `Nc1cnc2c(c1)c(=O)nc1n2CCS1` = > 100 µM

Please fill in: TGI reported for `Cc1cc(=O)[nH]c2c3c(ccc12)OC(C)(C)C=C3` = > 62.7 µM

Data point: O=C1CSC(/C=C/c2ccccc2)N1c1ccc(-n2c(-c3ccccc3)nc3ccccc3c2=O)cc1 (stereo unspecified) ; TGI = > 100 µM

Looking up CSc1ccc(C2=NN(C(=O)c3ccc(N)cc3)C(c3ccc(F)cc3)C2)cc1 (stereo unspecified) , I found its TGI recorded as 27.1 µM

---

# Tested on: TK-10 renal
# experiment summary: NCI tumour cell line growth inhibition, 48 h
assay endpoint: TGI

Before answering, review these 8 worked examples.
compound: O=C(/C=C/c1ccc(F)c(F)c1)OCCc1ccccc1
system under test: TK-10 renal
assay endpoint: TGI
measured result: > 100 µM

compound: CCOC(=O)CC(N1CC1)N1CC1
system under test: TK-10 renal
assay endpoint: TGI
measured result: > 10 µM

compound: CCOc1ccc2c(c1)NC(=O)C(C1OC(c3ccccc3)=CC1=O)S2 (stereo not given)
system under test: TK-10 renal
assay endpoint: TGI
measured result: > 100 µM

compound: Oc1ccc2ccccc2c1Cc1c(O)ccc2ccccc12
system under test: TK-10 renal
assay endpoint: TGI
measured result: 48.9 µM

compound: Oc1[nH]c2ccccc2c1N=NC(=S)N1CCCC1
system under test: TK-10 renal
assay endpoint: TGI
measured result: 36.2 µM

compound: COc1ccc2c(c1)CC[C@@H]1[C@@H]2CC[C@]2(C)[C@@H](O)/C(=C/c3ccncc3)C[C@@H]12
system under test: TK-10 renal
assay endpoint: TGI
measured result: 34 µM

compound: Cc1ccc(-c2cc(/C=N/O)on2)cc1
system under test: TK-10 renal
assay endpoint: TGI
measured result: > 100 µM

compound: CN(C)CCC(C(=O)C(C)(C)C)c1ccccn1 (stereo not given)
system under test: TK-10 renal
assay endpoint: TGI
measured result: > 100 µM

For `O=C(/N=C/c1c(O)c2ccccc2oc1=O)NC1CCCCC1` the compound record lists TGI as > 100 µM

What the record says about `Cc1cc2c(cc1C)[n+]([O-])c(-c1c(Cl)cccc1Cl)c(N)[n+]2[O-]` : TGI is > 100 µM

---

# Tested on: HOP-62 NSCLC
# experiment summary: NCI tumour cell line growth inhibition, 48 h
assay endpoint: TGI

Answered cases to consult:
compound: N#Cc1c(Oc2ccc(F)c(NC(=O)Cc3cccc(C(F)(F)F)c3)c2)ccc2nc(NC(=O)C3CC3)sc12
measured result: > 100 µM
//
compound: O=C(Nc1ccc(F)cc1)c1cc2ccc(O)cc2oc1=Nc1ccccc1F
measured result: > 100 µM

Let's switch to this compound now.
Sample CC(OCc1ccccc1)C(NC(=O)C1CSSCC(NC(=O)C(Cc2ccccc2)NC(=O)OCc2ccccc2)C(=O)NC(Cc2ccccc2)C(=O)NC(Cc2cn(C=O)c3ccccc23)C(=O)NC(CCCCNC(=O)OCc2ccccc2)C(=O)NC(C(C)OCc2ccccc2)C(=O)N1)C(N)=O (stereo not drawn) , system: HOP-62 NSCLC. Its TGI is > 100 µM

---

# Tested on: RXF 393 renal
# experiment summary: NCI tumour cell line growth inhibition, 48 h; in the data active = GI50 below about 0.43 µM; inactive = the rest
Respond using exactly one of the listed classes: TRUE for active, FALSE for inactive

Short answer needed: outcome of this test for `CNCCOc1nc2c3cnccc3cc(-c3cc(OC)c(OC)c(OC)c3)c2c2ccncc12` ? TRUE

Field: outcome | Entry: `Cc1ccc(-c2cc(/C=N/O)on2)cc1` FALSE

Test call, this compound: `COc1cccc(Nc2nccc(Nc3ccc4[nH]ncc4c3)n2)c1` FALSE

---

# Test system: SK-MEL-2 melanoma
# experiment summary: NCI tumour cell line growth inhibition, 48 h
assay endpoint: TGI

// solved cases for TGI follow
molecule: CC(C)(C)C(=O)[CH-]C(=O)C(F)(F)C(F)(F)C(F)(F)F.CC(C)(C)C(=O)[CH-]C(=O)C(F)(F)C(F)(F)C(F)(F)F.[O-]CC1OC(O)C(O)C(O)C1O.[O-]CC1OC(O)C(O)C(O)C1O.[Ti+4]
assay endpoint: TGI
measured result: > 100 µM
--
molecule: CN(NC(=O)c1cccs1)C1=NCCN1
assay endpoint: TGI
measured result: > 100 µM
--
molecule: O=C1CSC(/C=C/c2ccccc2)N1c1ccc(-n2c(-c3ccccc3)nc3ccccc3c2=O)cc1 (configuration not stated)
assay endpoint: TGI
measured result: > 100 µM

Memo: O=C(CC1(O)C(=O)Nc2c(Cl)ccc(Cl)c21)c1ccc(C2CC2)cc1 (configuration not stated) , reported TGI: 8.83 µM

The value of TGI measured for the molecule NC(=O)CCC(NC(=O)C(F)(F)F)C(=O)O (configuration not stated) turned out to be > 100 µM

---

# Test system: SK-OV-3 ovarian
# experiment summary: NCI tumour cell line growth inhibition, 48 h; in the data active means GI50 below about 0.43 µM; inactive means the rest
Pick one: 1 (yes) (active), 0 (no) (inactive)

Recorded results for 5 compounds are shown here.
compound: CN1CCN(c2ccc3nc4c(nc3c2C(F)(F)F)C(=O)c2ncccc2C4=O)CC1
category label: 0 (no)

compound: COc1cnc2c(c1)C(=O)c1c-2n(CCCN2CCN(CCO)CC2)c(=O)c2cc([N+](=O)[O-])ccc12
category label: 0 (no)

compound: O=C(Nc1ccc(S(=O)(=O)NC2CCCCCC2)cc1)C(c1ccccc1)S(=O)(=O)c1ccc(F)cc1 (stereo unspecified)
category label: 1 (yes)

compound: CC(=O)/C=C/C1=C(c2ccsc2)c2ccccc2CC1
category label: 0 (no)

compound: CCCCCc1c(C)[nH]c(/C=c2\[nH]/c(=C3/C=c4ccccc4=N3)cc2OC)c1C
category label: 0 (no)

Could you now consider this next compound?
Identify the outcome logged in this assay for the compound shown: C[C@@H](Oc1cc(-c2cnn(C3CC4(CCCNC4)C3)c2)cnc1N)c1c(Cl)ccc(F)c1Cl (stereo partly specified) 0 (no)

---

Below, each entry is listed with its recorded TGI.
# Test system: HOP-62 NSCLC
# experiment summary: NCI tumour cell line growth inhibition, 48 h

molecule: CCOC(=O)C1CC/C(=C(/C#N)C(=O)OC)N1 (stereo not drawn)
assay endpoint: TGI
measured result: > 100 µM
--
molecule: CC(C)(C)C(=O)[CH-]C(=O)C(F)(F)C(F)(F)C(F)(F)F.CC(C)(C)C(=O)[CH-]C(=O)C(F)(F)C(F)(F)C(F)(F)F.[O-]CC1OC(O)C(O)C(O)C1O.[O-]CC1OC(O)C(O)C(O)C1O.[Ti+4]
assay endpoint: TGI
measured result: > 100 µM

Please find the next molecule below.
Sample `O=C(O)Cc1ccc2c(c1O)C(=O)c1c(ccc(CC(=O)O)c1O)C2=O` , system: HOP-62 NSCLC. Its TGI is > 100 µM

---

# System: SK-MEL-28 melanoma
# experiment summary: NCI tumour cell line growth inhibition, 48 h
# TGI values compiled below

compound: COP(=O)(C(/C=C/c1ccccc1)OC(C)=O)[C@@H]1CCCC[C@H]1N(CC(C)(C)C)C(C)=O (stereo not given in full)
TGI: 53.1 µM

compound: CN(NC(=O)c1cccs1)C1=NCCN1
TGI: > 100 µM

TGI reported for this compound `CC(=O)N[C@@H](Cc1ccc(OP(=O)(O)O)cc1)C(=O)N[C@H]1CCC(=O)N2CCC[C@@H](C(=O)NCc3ccc(O)cc3)N2C1=O` : > 25 µM

For `C[C@]12CC[C@H](O)CC1=CC[C@@H]1[C@@H]2CC[C@]2(C)C(=O)CC[C@@H]12` the compound record lists TGI as > 100 µM

Short answer for `CC(=O)O/C=C\OC1CCCC1` : TGI was > 100 µM
